All values here come from patent US12240830B2.

biological target: ALK5 (Homo sapiens, UniProt P36897); construct: Cells were seeded at 3×10^4/well in 24-well plates were transiently transfected with 500 ng of (CAGA)-12-luciferase reporter construct; endogenous in cells; assay: Cell-based luciferase reporter assay for ALK5 activity; settings: (CAGA)-12-luciferase reporter, cells stimulated with 2 ng/ml recombinant TGF-β1 for 12 hours; Hs578T cells; read-out: Relative luciferase activity: IC50 value
Sequence (P36897 34-503): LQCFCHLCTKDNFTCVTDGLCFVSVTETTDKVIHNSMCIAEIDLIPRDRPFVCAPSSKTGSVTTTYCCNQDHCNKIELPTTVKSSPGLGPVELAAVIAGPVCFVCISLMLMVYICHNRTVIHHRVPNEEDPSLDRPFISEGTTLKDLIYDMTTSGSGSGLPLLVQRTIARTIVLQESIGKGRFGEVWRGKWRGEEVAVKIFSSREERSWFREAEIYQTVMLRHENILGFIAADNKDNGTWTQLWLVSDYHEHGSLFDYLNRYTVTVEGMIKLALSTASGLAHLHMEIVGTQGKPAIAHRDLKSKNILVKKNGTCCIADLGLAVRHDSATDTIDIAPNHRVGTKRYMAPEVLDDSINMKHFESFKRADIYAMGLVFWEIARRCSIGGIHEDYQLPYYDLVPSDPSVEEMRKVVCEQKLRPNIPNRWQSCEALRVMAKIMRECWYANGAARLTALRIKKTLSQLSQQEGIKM
pIC50: −log10 of the molar value.
Recorded metric: pIC50

Recorded pIC50, per entry:
{"Test smiles": "Cc1cccc(-c2[nH]c(NCc3cccc(F)c3)nc2-c2ccc3c(cnn3C)n2)n1", "Recorded metric": "pIC50", "Result": "< 7.00"}
{"Test smiles": "Cc1cccc(-c2[nH]c(NCc3cccc(F)c3)nc2-c2cnc3c(cnn3C)c2)n1", "Recorded metric": "pIC50", "Result": "> 8.00"}
{"Test smiles": "Cc1cccc(-c2[nH]c(NCc3cccc(C)c3F)nc2-c2ccc3c(cnn3C)c2)n1", "Recorded metric": "pIC50", "Result": "7.00 to 8.00"}

// batch mode: one pIC50 value per listed entry
1. Cc1cccc(-c2[nH]c(NCc3cccc(F)c3F)nc2-c2ccc3c(cnn3C)c2)n1
2. Cc1cccc(-c2[nH]c(NCc3cccc(F)c3)nc2-c2ccc3c(cnn3S(C)(=O)=O)c2)n1
3. Cc1cccc(-c2[nH]c(NCc3cccc(F)c3)nc2-c2ccc3c(cnn3C(C)(C)CO)c2)n1
4. Cc1cccc(-c2[nH]c(NCc3ccc(F)cc3F)nc2-c2ccc3c(cnn3C)c2)n1

Reply text:
7.00 to 8.00
< 7.00
< 7.00
7.00 to 8.00

Fill in: ALK5 (Homo sapiens, UniProt P36897) pIC50 for Cc1cccc(-c2[nH]c(NCc3cccc(Cl)c3F)nc2-c2ccc3c(cnn3C(F)F)c2)n1 = 7.00 to 8.00
